Measured total protein half-life in vivo accompanies every entry in the list below.
# MEASUREMENT_NOTES: total protein half-life in vivo (active degradation + dilution); higher = more stable protein
# PARTICULARS: wild type E. coli NCM3722; growth: C-lim chemostat; doubling time 12 h
Write the number in h without appending the unit.

Example entries begin here.
Query block: Returns the measured total protein half-life in vivo for the input sequence. Input: "MKLISNDLRDGDKLPHRHVFNGMGYDGDNISPHLAWDDVPAGTKSFVVTCYDPDAPTGSGWWHWVVVNLPADTRVLPQGFGSGLVAMPDGVLQTRTDFGKTGYDGAAPPKGETHRYIFTVHALDIERIDVDEGASGAMVGFNVHFHSLASASITAMFS"
Result block: 13.4

Query block: Consider next the sequence "MRRTFIKKEGVVITTLARYLLGEKCGNRLKTIDELANECRSSVGLTQAALKTLESSGAIRIERRGRNGSYLVEMDNKALLTHVDINNVVCAMPLPYTRLYEGLASGLKAQFDGIPFYYAHMRGADIRVECLLNGVYDMAVVSRLAAESYLTQKGLCLALELGPHTYVGEHQLICRKGESANVKRVGLDNRSADQKIMTDVFFGGSDVERVDLSYHESLQRIVKGDVDAVIWNVVAENELTMLGLEATPLTDDPRFLQATEAVVLTRVDDYPMQQLLRAVVDKHALLAHQQRVVSGEQEPSY" in the same way.
Result block: 7.63

Query block: Consider next the sequence "MKAFNKLFSLVVASVLVFSLAGCGDKEESKKFSANLNGTEIAITYVYKGDKVLKQSSETKIQFASIGATTKEDAAKTLEPLSAKYKNIAGVEEKLTYTDTYAQENVTIDMEKVDFKALQGISGINVSAEDAKKGITMAQMELVMKAAGFKEVK" in the same way.
Result block: 7.55

Query block: Consider next the sequence MMSQPAKVLLLYAHPESQDSVANRVLLKPATQLSNVTVHDLYAHYPDFFIDIPREQALLREHEVIVFQHPLYTYSCPALLKEWLDRVLSRGFASGPGGNQLAGKYWRSVITTGEPESAYRYDALNRYPMSDVLRPFELAAGMCRMHWLSPIIIYWARRQSAQELASHARAYGDWLANPLSPGGR [P0A756] in the same way.
Result block: 10.6

Query block: Consider next the sequence MYYPFVRKALFQLDPERAHEFTFQQLRRITGTPFEALVRQKVPAKPVNCMGLTFKNPLGLAAGLDKDGECIDALGAMGFGSIEIGTVTPRPQPGNDKPRLFRLVDAEGLINRMGFNNLGVDNLVENVKKAHYDGVLGINIGKNKDTPVEQGKDDYLICMEKIYAYAGYIAINISSPNTPGLRTLQYGEALDDLLTAIKNKQNDLQAMHHKYVPIAVKIAPDLSEEELIQVADSLVRHNIDGVIATNTTLDRSLVQGMKNCDQTGGLSGRPLQLKSTEIIRRLSLELNGRLPIIGVGGIDSVIAAREKIAAGASLVQIYSGFIFKGPPLIKEIVTHI [P0A7E1] in the same way.
Result block: 13.1

Query block: Consider next the sequence MSSRNNPARVAIVMGSKSDWATMQFAAEIFEILNVPHHVEVVSAHRTPDKLFSFAESAEENGYQVIIAGAGGAAHLPGMIAAKTLVPVLGVPVQSAALSGVDSLYSIVQMPRGIPVGTLAIGKAGAANAALLAAQILATHDKELHQRLNDWRKAQTDEVLENPDPRGAA [P0AG18] in the same way.
Result block: 9.5

Query block: Consider next the sequence "MKCPVCHQGEMVSGIKDIPYTFRGRKTVLKGIHGLYCVHCEESIMNKEESDAFMAQVKAFRASVNAETVAPEFIVKVRKKLSLTQKEASEIFGGGVNAFSRYEKGNAQPHPSTIKLLRVLDKHPELLNEIR" in the same way.
Result block: 1.23

Query block: Consider next the sequence MELIFLGTSAGVPTRTRNVTAILLNLQHPTQSGLWLFDCGEGTQHQLLHTAFNPGKLDKIFISHLHGDHLFGLPGLLCSRSMSGIIQPLTIYGPQGIREFVETALRISGSWTDYPLEIVEIGAGEILDDGLRKVTAYPLEHPLECYGYRIEEHDKPGALNAQALKAAGVPPGPLFQELKAGKTITLEDGRQINGADYLAAPVPGKALAIFGDTGPCDAALDLAKGVDVMVHEATLDITMEAKANSRGHSSTRQAATLAREAGVGKLIITHVSSRYDDKGCQHLLRECRSIFPATELANDFTVFNV [P0A8V0] in the same way.
Result block: 10

Would you kindly look at the next entry?
Query block: Returns the measured total protein half-life in vivo for the input sequence. Input: MDALELLINRRSASRLAEPAPTGEQLQNILRAGMRAPDHKSMQPWHFFVIEGEGRERFSAVLEQGAIAAGSDDKAIDKARNAPFRAPLIITVVAKCEENHKVPRWEQEMSAGCAVMAMQMAAVAQGFGGIWRSGALTESPVVREAFGCREQDKIVGFLYLGTPQLKASTSINVPDPTPFVTYF [P0ACY1]
Result block: 9.81

----------
Measured total protein half-life in vivo accompanies every entry in the list below.
# MEASUREMENT_NOTES: total protein half-life in vivo (active degradation + dilution); higher = more stable protein
# PARTICULARS: wild type E. coli NCM3722; growth: C-lim chemostat; doubling time 3 h
Write the number in h without appending the unit.

Query block: Returns the measured total protein half-life in vivo for the input sequence. Input: "MSAFTPASEVLLRHSDDFEQSRILFAGDLQDDLPARLDTAASRAHTQQFHHWQVLSRQMGDNARFSLVATADDVADCDTLIYYWPKNKPEAQFQLMNLLSLLPVGTDIFVVGENRSGVRSAEQMLADYAPLNKVDSARRCGLYFGRLEKQPVFDAEKFWGEYSVDGLTVKTLPGVFSRDGLDVGSQLLLSTLTPHTKGKVLDVGCGAGVLSVAFARHSPKIRLTLCDVSAPAVEASRATLAANGVEGEVFASNVFSEVKGRFDMIISNPPFHDGMQTSLDAAQTLIRGAVRHLNSGGELRIVANAFLPYPDVLDETFGFHEVIAQTGRFKVYRAIMTRQAKKG"
Result block: 2.93

Query block: Consider next the sequence "MVELKEPLATLWRGKDAFAEVKKLNGEVFRELETRRTLRFELSGKSYFLKWHKGTTLKEIIKNLLSLRMPVLGADREWHAIHRLSDVGVDTMKGIGFGEKGLNPLTRASFIITEDLTPTISLEDYCADWAVNPPDIRVKRMLIARVATMVRKMHTAGINHRDCYICHFLLHLPFTGREDELKISVIDLHRAQIRAKVPRRWRDKDLIGLYFSSMNIGLTQRDIWRFMKVYFGMPLRKILSLEQNLLNMASVKAERIKERTQRKGL" in the same way.
Result block: 3.02

Query block: Consider next the sequence MRIIDNLEQFRQIYASGKKWQRCVEAIENIDNIQPGVAHSIGDSLTYRVETDSATDALFTGHRRYFEVHYYLQGQQKIEYAPKETLQVVEYYRDETDREYLKGCGETVEVHEGQIVICDIHEAYRFICNNAVKKVVLKVTIEDGYFHNK [P0AC73] in the same way.
Result block: 2.92

Query block: Consider next the sequence MKNIVPDYRLDMVGEPCPYPAVATLEAMPQLKKGEILEVVSDCPQSINNIPLDARNHGYTVLDIQQDGPTIRYLIQK [P0AA31] in the same way.
Result block: 3.04

Query block: Consider next the sequence "MNMKTIEDVFIHLLSDTYSAEKQLTRALAKLARATSNEKLSQAFHAHLEETHGQIERIDQVVESESNLKIKRMKCVAMEGLIEEANEVIESTEKNEVRDAALIAAAQKVEHYEIASYGTLATLAEQLGYRKAAKLLKETLEEEKATDIKLTDLAINNVNKKAENKA" in the same way.
Result block: 3.02

Continuing:
Query block: Returns the measured total protein half-life in vivo for the input sequence. Input: MHPMLNIAVRAARKAGNLIAKNYETPDAVEASQKGSNDFVTNVDKAAEAVIIDTIRKSYPQHTIITEESGELEGTDQDVQWVIDPLDGTTNFIKRLPHFAVSIAVRIKGRTEVAVVYDPMRNELFTATRGQGAQLNGYRLRGSTARDLDGTILATGFPFKAKQYATTYINIVGKLFNECADFRRTGSAALDLAYVAAGRVDGFFEIGLRPWDFAAGELLVREAGGIVSDFTGGHNYMLTGNIVAGNPRVVKAMLANMRDELSDALKR [P0ADG4]
Result block: 3.01

Query block: Consider next the sequence MSDVLRPYRDLFPQIGQRVMIDDSSVVIGDVRLADDVGIWPLVVIRGDVHYVQIGARTNIQDGSMLHVTHKSSYNPDGNPLTIGEDVTVGHKVMLHGCTIGNRVLVGMGSILLDGAIVEDDVMIGAGSLVPQNKRLESGYLYLGSPVKQIRPLSDEEKAGLRYSANNYVKWKDEYLDQGNQTQP [P0A9W9] in the same way.
Result block: 3.04
